Source of measurements: paper PMC10397247

Listing of entries alongside the reported interaction score.
Target: T1, 4H1930-AA
T1 chain: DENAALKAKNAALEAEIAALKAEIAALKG
Assay: two-hybrid library CCmax;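 also: natural log of median RNA to DNA barcode read ratio; higher means stronger binding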
Conditions: mean of both orientations
observed property: interaction score

>>> measured_result("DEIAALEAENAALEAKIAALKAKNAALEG [4H175-AA]")
-1.75
>>> measured_result("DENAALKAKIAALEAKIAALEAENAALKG [4H1828-AA]")
-1.5
>>> measured_result("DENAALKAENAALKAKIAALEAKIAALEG [4H1765-AA]")
-1.21
>>> measured_result("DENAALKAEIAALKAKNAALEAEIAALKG [4H1650-AA]")
-1.42
>>> measured_result("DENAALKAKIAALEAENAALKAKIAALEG [4H1821-AA]")
-1.43
>>> measured_result("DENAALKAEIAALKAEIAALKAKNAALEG [4H1615-AA]")
-1.07
